Entry source: the supplement of paper PMC9732359

Field: protein stability index. Provide a value for each of the sequences that follow.
- protocol_description: protein stability index of a GFP-peptide fusion (yeast GPS) (PSI 1-4); higher = more stable; sorted into four equal gates, so the index is relative within each strain
- condition_context: pdr5∆
I'd appreciate a reply containing only the number, no unit.

Q) // returns reported protein stability index for input FNYVQECPAIPIFNYIF [YJL039C/NUP192]
A) 1.75

Q) Fill blank: measured protein stability index of the sequence VYTQSNGKTRTLENTLK [RPS2] is ____.
A) 3.16

Q) Which protein stability index value belongs to GENDDDTLDGDLMDDMS [RPN3] ?
A) 2.7

Q) Look up protein stability index for this sequence: SKLKEEEAALLIKERQE [ESC2]
A) 2.88

Q) Look up protein stability index: KAIFQFVCRGMAATQTI [ECM29]
A) 1.73

Q) Quick one: protein stability index of TKEELESDGRMFIEEPT [SRP54] ?
A) 3.11

Q) Quick one: protein stability index for KSMASAFGVSVAFLDND [RPN7] ?
A) 3.08

Q) Given the entry QKKVLIDGPKAGVPRQA [RPL14A] , report its measured protein stability index.
A) 3.35

Q) # protein stability index lookup, item FGDTKSESKQLGNTSSV [SWI3]
A) 3.16

Q) For the sequence shown here, DYKGAKLNVVGWFHSHP [RRI1] , give the reported protein stability index.
A) 2.49

Q) # input sequence: RSEKSTTNAQTKKLIQK [SRP54] ; wanted: its protein stability index
A) 2.82

Q) Find the recorded protein stability index belonging to NASGNKRSGVIETVDDK [ITC1] and report it.
A) 2.58

Q) Entry LNPNEYFSVTTARRNVS [SWI3] has what protein stability index?
A) 1.67

Q) Would you mind telling me what protein stability index value was observed for FIAVGQILPESQWNDSS [SIR3] ?
A) 3.08

Q) Which protein stability index is reported for this sequence? DNISSFHSAVENLVQGN [YCG1]
A) 3

====

- protocol_description: protein stability index of a GFP-peptide fusion (yeast GPS) (PSI 1-4); higher = more stable; sorted into four equal gates, so the index is relative within each strain
- condition_context: doa10∆
Please go through the items and note down their protein stability index.
Just the number, please, no unit attached.

Q) Suppose we examine the sequence VCKKADVDLHKRAGELT [RPS18A] ; what protein stability index value has been reported?
A) 3.23

Q) Using the record for QHQSLSRSSSKNVNIED [ESC2] , report its protein stability index.
A) 2.83

Q) Look up protein stability index for this sequence: LNRIKKYLLTQRVFKPV [PRP8]
A) 2.22

Q) Endpoint output: protein stability index of AEKKIPLVIRRYLPDGS [RPO26] . Value?
A) 2.79

Q) Item under review: TKWGLINYQVDSKLLPK [SWI3] . Reported protein stability index?
A) 2.8

Q) # get_value(readout='protein stability index', item= TIYNNIREGQNQKIPDN [SIR3] )
A) 2.96

Q) What does the data say about its protein stability index? Entry: QSQPQEKFSEKMLKIWT [ECM29]
A) 3.57

Q) So what's the measured protein stability index for this one? NISGEFFRNKLKYHDFL [RPL16B]
A) 2.35

Q) # query: protein stability index of entry YYAKKRAFTKKVSSASA [RPL16B]
A) 1.82

Q) Sample VFKATSSTDEESWFKAL [FAS1] — what was its protein stability index?
A) 2.92

Q) Look up protein stability index for this sequence: WDLVDERTKQRTAKAYL [PRP8]
A) 3.18

Q) Quick one: protein stability index for TVYISSIALLKMLKHGR [RPN11] ?
A) 2.25

Q) Fill in the blank: the reported protein stability index of RVNLSENTPEPDLPALE [SMC4] is ____.
A) 2.26

Q) Tell me the measured protein stability index of EELLDNCIETFVAEKTT [SRB6] , please.
A) 2.43

Q) For the sequence shown here, EDEDDGESEKSSDVDMD [RPC53] , give the reported protein stability index.
A) 3.28

Q) Looking for the measured protein stability index of LRDHALSLTAFTKNEEK [ITC1] , can you help?
A) 1.42

Q) Param item = LEDDSLLSYPIKLDRWL [RPN12] ; retrieve measured protein stability index.
A) 3.12

Q) Which protein stability index value belongs to KYRPETAAEKKERLTKE [RPL8A] ?
A) 3.08

Q) Fill blank: measured protein stability index of the sequence SMLFKTSQKMTSTVNRL [MCD1] is ____.
A) 2.22

Q) Data request, read-out protein stability index, for NKPAIKEDSTIQDSNGD [SWI3]
A) 2.92

Q) I have this sequence here, TTVQVAEEAIVNAMRVL [PRE4] , and I need its recorded protein stability index.
A) 2.91

Q) Using the record for YFKLDLTSDLVYFGDEN [RRI2] , report its protein stability index.
A) 2.09

Q) Entry PGTITHGMFSSASVRAL [FAS1] : reported protein stability index = ?
A) 2.53

Q) Entry KIQQHNTILNSSSDFRL [BRR2] has what protein stability index?
A) 2.71

Q) Request the reported protein stability index associated with LYPIFLLDDKKLMDEDS [YJR042W/NUP85]
A) 2.01

Q) Which protein stability index is reported for this sequence? NYGSSLQWHAMIELICS [AAR2]
A) 1.31

Q) Given the entry GSSNKAVVQTVKGLLNT [YJL039C/NUP192] , report its measured protein stability index.
A) 3.27

Q) Look up protein stability index for this sequence: TFDGKPTATPSPFRPLE [YMR153W/NUP53]
A) 3.02

Q) // returns reported protein stability index for input TGKFVLQGQMEKIMILL [CSN12]
A) 1.61

Q) Fill blank: measured protein stability index of the sequence IRRTFNIVNDFTPEEEA [SKP1] is ____.
A) 2.71

Q) Endpoint output: protein stability index of LQIGDVVERHLEDGDVV [RPO31] . Value?
A) 3.38

Q) Requested field: protein stability index. Item: DTFDGSDLRVLSGSISE [FAS1]
A) 1.6

Q) Which protein stability index reading was recorded for the sequence AIRADPAFKPTEKKFTK [RPL5] ?
A) 3.11

Q) Can you share its protein stability index? I mean this sequence: YQGVYSMGSILLSFVLG [YML031W/NDC1]
A) 2.29

Q) What does the data say about its protein stability index? Entry: KQVLDVDPVYKDVAKPT [FAS2]
A) 2.98

Q) I would be grateful if you could share the reported protein stability index for ISEVMEDRNQRIKEMYW [FAS1] .
A) 3.07

Q) Consider the sequence NSLLLDSTPEEVSCKLL [YML103C/NUP188] and give its measured protein stability index.
A) 2.67

Q) // query protein stability index value for entry LNQIATLKIHLKKFLQE [IRR1]
A) 2.17

Q) // lookup protein stability index for QAYEEIISSNENALIEL [YIL149C/MLP2]
A) 3.18

Q) What value of measured protein stability index is listed for PLASEESLTNSNMFDNS [YGL100W/SEH1] ?
A) 3.38

Q) Find the recorded protein stability index belonging to GSIPVDQVVVRGIDTLQ [RPB3] and report it.
A) 2.14

Q) What value of protein stability index has been recorded for this entry: QRDLGLYVVGLFDTYHA [RRP6]
A) 2.38

Q) Which protein stability index reading was recorded for the sequence DFKEVEDFLHFIVAEYI [SRB4] ?
A) 2.73

Q) Returns the measured protein stability index for the input sequence. Input: LTVIEKLDSKKILPTDI [SRP68]
A) 2.71

Q) # input sequence: NIVHNFKERQMMVSYPK [AAR2] ; wanted: its protein stability index
A) 3.04

Q) Item ITLRGVENIERVVMMKY [RPO21] has what recorded protein stability index?
A) 2.22

Q) For LIKTLSTLHMLGYTHIA [RPP1] , what is its reported protein stability index?
A) 2.49

Q) Param item = EIKNDFIMVKGCIPGNR [RPL3] ; retrieve measured protein stability index.
A) 1.1

Q) Which protein stability index is listed for AETIILSSAGKNSSVSS [SRB5] ?
A) 1.65

Q) Please look up its protein stability index: ILVDSLTGNQLPTPTPT [SWI1]
A) 2.73

Q) protein stability index lookup needed for NASANSTSFSFNAPATG [YOR098C/NUP1] , thanks.
A) 2.99

Q) May I ask what protein stability index has been recorded for TVEPVYQMHIKTSKDIA [FAS1] ?
A) 1.29

Q) I would be grateful if you could share the reported protein stability index for IGSTSKRPIESGTSSDP [YIL149C/MLP2] .
A) 3.23

Q) Reported protein stability index, sequence YEIRDIDQDIHGIVFQH [SSN2] : ____
A) 2.5

Q) Fill in: protein stability index of EKQIEELLDNCIETFVA [SRB6] is ___
A) 2.62

Q) Could you share which protein stability index value was measured for SNGEFIPHIFYSLHQIR [CSE2] ?
A) 2.02

Q) Look at this sequence and give its reported protein stability index. RGKKGLKKKVVDPFTRK [RPS1B]
A) 3.73

Q) State the recorded protein stability index for this entry: SKQTPQPKAPRAPKVIH [ISW2]
A) 2.91

Q) Look up protein stability index for this sequence: QQTGLVDAITRCYQPFE [SNU114]
A) 2.53

Q) Any idea what its protein stability index is? The sequence is EIESIDKLPQFVDENTF [RPN1]
A) 3.08
